System: RPMI-8226 leukemia
assay.text: NCI tumour cell line growth inhibition, 48 h
Below, each entry is listed alongside its reported GI50.

# compound, GI50
data = [
    ("[C-]#[O+].[C-]#[O+].[C-]#[O+].[C-]#[O+].[O-]C(c1ccccc1[PH+]1OC(C(F)(F)F)(C(F)(F)F)c2ccccc21)(C(F)(F)F)C(F)(F)F.[Re] (centres undefined)", "2890 nM"),
    ("CCn1c(-c2nonc2N)nc2c(C#CC(C)(C)O)nc(CN3CCCC3)cc21", "> 25000 nM"),
    ("CCC(=O)c1c(C(F)(F)F)n([O-])c2cc(N3CCNCC3)c(F)cc2[n+]1=O", "2170 nM"),
    ("Clc1nc(Cl)c2ncn(C/C=C\\COc3cccc(OC/C=C\\Cn4cnc5c(Cl)nc(Cl)nc54)c3)c2n1", "> 100000 nM"),
]

---

Test system: COLO 205 colon
assay.text: NCI tumour cell line growth inhibition, 48 h
Below, each entry is listed alongside its reported TGI.

# compound, TGI
rows = [
    ("CC(=O)CC(=O)Nc1ccccc1[N+](=O)[O-]", "> 100 µM"),
    ("CCOc1ccccc1N1C(=O)C(=O)C(c2nc3ccccc3s2)C(=O)C1=O", "> 100 µM"),
    ("CC(=O)OCC1OC(n2c3c(cc(C#N)c2=O)CCCCCC3)C(OC(C)=O)C(OC(C)=O)C1OC(C)=O (centres undefined)", "> 100 µM"),
    ("Nc1ccc(Cc2ccc(N=Cc3ccc(OCc4cccc(COc5ccc(C=Nc6ccc(Cc7ccc(N)cc7)cc6)cc5)n4)cc3)cc2)cc1", "> 100 µM"),
    ("CC(NC(=O)OC(C)(C)C)C(=O)NC(Cc1ccccc1)C(=O)NCC(=O)ON=C1CCCC1 (centres undefined)", "> 100 µM"),
    ("CC(C)(C)C1=Nc2c(Br)cc(C(C)(C)C)cc2C(C(F)(F)F)(C(F)(F)F)O1", "> 100 µM"),
    ("Cc1cc2c(c3c1c1ccccc1n3C)C(=O)c1ccccc1C2=O", "> 100 µM"),
    ("COC12OCCN(CCO)C1=CC(=O)C1(C)N=NC(C)C12 (centres undefined)", "> 100 µM"),
    ("COc1ccc(C2C(C#N)=C(N)Oc3c2sc2c(F)cccc32)cc1 (centres undefined)", "8.18 µM"),
    ("O=C1C(Br)=CC2C1C1C3CCC3C2(Br)C12OCCO2 (centres undefined)", "10.9 µM"),
    ("CCn1c(-c2nonc2N)nc2c(C#CC(C)(C)O)nc(CN3CCCC3)cc21", "> 25 µM"),
    ("COc1ccc2c(c1)OCCCN(C)OC2c1ccccc1 (centres undefined)", "> 100 µM"),
    ("CC1CC(NN)=Nc2ccccc2N1 (centres undefined)", "> 100 µM"),
    ("N#Cc1c2c(c(Nc3ccc(F)cc3)n3c1nc1ccccc13)CCCC2", "> 100 µM"),
    ("Cc1cc2c(=O)cc(-c3cccs3)oc2c(C(=O)O)c1C", "> 100 µM"),
    ("Cc1cc(C)nc(Sc2c([N+](=O)[O-])ncn2C)n1", "> 100 µM"),
    ("O=C1C=C(c2[nH]c3ccccc3c2C2=CC(=O)c3ccccc3C2=O)C(=O)c2ccccc21", "> 100 µM"),
    ("O=C(O)COc1ccc(C(=O)/C(SS/C(C(=O)c2ccc(OCC(=O)O)c(Cl)c2Cl)=C2\\C=C(c3ccc(F)cc3)SS2)=C2/C=C(c3ccc(F)cc3)SS2)c(Cl)c1Cl", "25 µM"),
    ("C=CCN1CN(C2CCCCC2)CSC1=S", "14.3 µM"),
]

// data source = PubChem BioAssay (NCI)
